System: panel of nearly 500 cancer cell lines
Experiment: Cancer Cell Line Encyclopedia profiling, 3-day CellTiter-Glo
Format: cell-based
Conditions: Homo sapiens, PLC-PRF-5
recordedEndpoint: IC50

Q: Field: IC50 (panel of nearly 500 cancer cell lines). Entry: CN(C)C(=O)c1cc2cnc(Nc3ccc(N4CCNCC4)cn3)nc2n1C1CCCC1 [Ribociclib]
Ans: > 8 µM

----------
Tested on: panel of nearly 500 cancer cell lines
Experiment: Cancer Cell Line Encyclopedia profiling, 3-day CellTiter-Glo
Assay type: cell-based
Settings: eb1 (haematopoietic_and_lymphoid_tissue); read-out: IC50
pIC50: −log10 of the molar value.
recordedEndpoint: pIC50

Q: Name the reported pIC50 value associated with the molecule "CC(=O)c1c(C)c2cnc(Nc3ccc(N4CCNCC4)cn3)nc2n(C2CCCC2)c1=O"
Ans: < 5.10

----------
System: panel of nearly 500 cancer cell lines
Experiment: Cancer Cell Line Encyclopedia profiling, 3-day CellTiter-Glo
Format: cell-based
Settings: Homo sapiens, NCI-H1975
pIC50: −log10 of the molar value.
recordedEndpoint: pIC50

Q: Need pIC50, item CN(C)C(=O)c1cc2cnc(Nc3ccc(N4CCNCC4)cn3)nc2n1C1CCCC1 [Ribociclib]
Ans: < 5.10

----------
Tested on: panel of nearly 500 cancer cell lines
Test: Cancer Cell Line Encyclopedia profiling, 3-day CellTiter-Glo
Format: cell-based
Conditions: Homo sapiens, NCI-H226
pIC50: −log10 of the molar value.
recordedEndpoint: pIC50

Q: Any idea what its pIC50 is? The molecule is "CN(C)C(=O)c1cc2cnc(Nc3ccc(N4CCNCC4)cn3)nc2n1C1CCCC1"
Ans: < 5.10

----------
Test system: NCI-H1975
Experiment: cells
Type: cell-based
Conditions: Homo sapiens, NCI-H1975, 72 h
recordedEndpoint: IC50
Respond with the figure and its unit, in that order.

Q: Returns the measured IC50 for the input molecule. Input: CN(C)C(=O)c1cc2cnc(Nc3ccc(N4CCNCC4)cn3)nc2n1C1CCCC1 [Ribociclib]
Ans: 3.53 µM

----------
Tested on: panel of nearly 500 cancer cell lines
Experiment: Cancer Cell Line Encyclopedia profiling, 3-day CellTiter-Glo
Type: cell-based
Settings: Homo sapiens, NCI-H2122
recordedEndpoint: pIC50
Entry type: numeric. Quantity: pIC50, the -log10 of concentration in molar units.

Q: // lookup pIC50 for CN(C)C(=O)c1cc2cnc(Nc3ccc(N4CCNCC4)cn3)nc2n1C1CCCC1 [Ribociclib]
Ans: 5.43

----------
Test system: panel of nearly 500 cancer cell lines
Assay: Cancer Cell Line Encyclopedia profiling, 3-day CellTiter-Glo
Format: cell-based
Conditions: Homo sapiens, DMS-114
Attribute: pEC50
In simple prose, pEC50 is minus the logarithm base ten of a concentration in moles per litre.

CC(=O)c1c(C)c2cnc(Nc3ccc(N4CCNCC4)cn3)nc2n(C2CCCC2)c1=O [Palbociclib, reference compound] | 6.02

Below: the item to evaluate.
Q: Fill blank: measured pEC50 of the molecule "CN(C)C(=O)c1cc2cnc(Nc3ccc(N4CCNCC4)cn3)nc2n1C1CCCC1" is ____.
Ans: 6.95

----------
System: panel of nearly 500 cancer cell lines
Test: Cancer Cell Line Encyclopedia profiling, 3-day CellTiter-Glo
Format: cell-based
Conditions: COV504
pIC50: −log10 of the molar value.
recordedEndpoint: pIC50

Q: What value of measured pIC50 is listed for "CN(C)C(=O)c1cc2cnc(Nc3ccc(N4CCNCC4)cn3)nc2n1C1CCCC1" ?
Ans: < 5.10

----------
Test system: panel of nearly 500 cancer cell lines
Experiment: Cancer Cell Line Encyclopedia profiling, 3-day CellTiter-Glo
Assay type: cell-based
Settings: detroit562 (upper_aerodigestive_tract); read-out: IC50
recordedEndpoint: pIC50
Note: pIC50 values are expressed as the negative base-10 logarithm of concentration in M.

Q: Recorded pIC50 of "CC(=O)c1c(C)c2cnc(Nc3ccc(N4CCNCC4)cn3)nc2n(C2CCCC2)c1=O" , please.
Ans: 5.50

----------
System: LnCAP
Test: cells
Type: cell-based
Conditions: Homo sapiens, 72 h
recordedEndpoint: IC50 (nM)
A number alone suffices; assume nM.

Q: Form: Entry = CN(C)C(=O)c1cc2cnc(Nc3ccc(N4CCNCC4)cn3)nc2n1C1CCCC1 [Ribociclib] | System = LnCAP | IC50 = ____
Ans: 180

----------
Test system: panel of nearly 500 cancer cell lines
Assay: Cancer Cell Line Encyclopedia profiling, 3-day CellTiter-Glo
Format: cell-based
Details: Homo sapiens, COLO 201
pIC50: −log10 of the molar value.
recordedEndpoint: pIC50

Q: Report pIC50 for "CN(C)C(=O)c1cc2cnc(Nc3ccc(N4CCNCC4)cn3)nc2n1C1CCCC1" please.
Ans: < 5.10

----------
Tested on: panel of nearly 500 cancer cell lines
Experiment: Cancer Cell Line Encyclopedia profiling, 3-day CellTiter-Glo
Assay type: cell-based
Settings: Homo sapiens, 639-V
Let's look at some compounds and their measured EC50.

CN(C)C(=O)c1cc2cnc(Nc3ccc(N4CCNCC4)cn3)nc2n1C1CCCC1 [Ribociclib] | > 8 µM

Okay, now this compound:
Q: Suppose we examine the compound CC(=O)c1c(C)c2cnc(Nc3ccc(N4CCNCC4)cn3)nc2n(C2CCCC2)c1=O [Palbociclib, reference compound] ; what EC50 value has been reported?
Ans: > 8 µM

----------
System: panel of nearly 500 cancer cell lines
Assay: Cancer Cell Line Encyclopedia profiling, 3-day CellTiter-Glo
Type: cell-based
Conditions: Homo sapiens, Raji
pEC50: −log10 of the molar value.
recordedEndpoint: pEC50

CN(C)C(=O)c1cc2cnc(Nc3ccc(N4CCNCC4)cn3)nc2n1C1CCCC1 | < 5.10

Q: Can you share its pEC50? I mean this compound: CC(=O)c1c(C)c2cnc(Nc3ccc(N4CCNCC4)cn3)nc2n(C2CCCC2)c1=O [Palbociclib, reference compound]
Ans: < 5.10

----------
Test system: panel of nearly 500 cancer cell lines
Assay: Cancer Cell Line Encyclopedia profiling, 3-day CellTiter-Glo
Assay type: cell-based
Conditions: Homo sapiens, NCI-H2170
recordedEndpoint: pEC50
Keep it numeric: pEC50 is minus log10 of the concentration in mol/L.

Q: Request the reported pEC50 associated with CC(=O)c1c(C)c2cnc(Nc3ccc(N4CCNCC4)cn3)nc2n(C2CCCC2)c1=O [Palbociclib, reference compound]
Ans: 5.81

----------
Test system: panel of nearly 500 cancer cell lines
Assay: Cancer Cell Line Encyclopedia profiling, 3-day CellTiter-Glo
Assay type: cell-based
Conditions: Homo sapiens, DOHH-2
recordedEndpoint: pEC50
Value format note: pEC50 is -log10 of concentration (mol/L); just state the number.

Q: Give the reported pEC50 for "CN(C)C(=O)c1cc2cnc(Nc3ccc(N4CCNCC4)cn3)nc2n1C1CCCC1" (system: panel of nearly 500 cancer cell lines).
Ans: 6.92

----------
System: panel of nearly 500 cancer cell lines
Experiment: Cancer Cell Line Encyclopedia profiling, 3-day CellTiter-Glo
Type: cell-based
Conditions: Homo sapiens, SCaBER
recordedEndpoint: IC50

Q: Endpoint output: IC50 of CN(C)C(=O)c1cc2cnc(Nc3ccc(N4CCNCC4)cn3)nc2n1C1CCCC1 [Ribociclib] . Value?
Ans: > 8 µM

----------
Test system: panel of nearly 500 cancer cell lines
Experiment: Cancer Cell Line Encyclopedia profiling, 3-day CellTiter-Glo
Format: cell-based
Conditions: cmk (haematopoietic_and_lymphoid_tissue); read-out: IC50
recordedEndpoint: IC50 (µM)
Answer format: numeric, µM implied, no suffix.

Q: Entry under review: "CC(=O)c1c(C)c2cnc(Nc3ccc(N4CCNCC4)cn3)nc2n(C2CCCC2)c1=O" . Reported IC50?
Ans: 5.49

----------
Tested on: panel of nearly 500 cancer cell lines
Assay: Cancer Cell Line Encyclopedia profiling, 3-day CellTiter-Glo
Assay type: cell-based
Conditions: ht (haematopoietic_and_lymphoid_tissue); read-out: IC50
recordedEndpoint: IC50

Q: Could you tell me which IC50 is on file for "CC(=O)c1c(C)c2cnc(Nc3ccc(N4CCNCC4)cn3)nc2n(C2CCCC2)c1=O" ?
Ans: > 8 µM

----------
Test system: panel of nearly 500 cancer cell lines
Experiment: Cancer Cell Line Encyclopedia profiling, 3-day CellTiter-Glo
Format: cell-based
Details: PL45
Below: a set of entries, each annotated with reported EC50.

CC(=O)c1c(C)c2cnc(Nc3ccc(N4CCNCC4)cn3)nc2n(C2CCCC2)c1=O [Palbociclib, reference compound] | > 8000 nM

Would you kindly look at the next entry?
Q: Param readout= EC50; system= panel of nearly 500 cancer cell lines; entry= "CN(C)C(=O)c1cc2cnc(Nc3ccc(N4CCNCC4)cn3)nc2n1C1CCCC1" ; returns value.
Ans: 97.5 nM

----------
Tested on: panel of nearly 500 cancer cell lines
Experiment: Cancer Cell Line Encyclopedia profiling, 3-day CellTiter-Glo
Format: cell-based
Details: Homo sapiens, MOLP-8
pEC50: −log10 of the molar value.
recordedEndpoint: pEC50

Q: For "CN(C)C(=O)c1cc2cnc(Nc3ccc(N4CCNCC4)cn3)nc2n1C1CCCC1" , what is its reported pEC50?
Ans: < 5.10
